quantity: logP
No unit in the answer, please; the number alone is enough.

For this compound ( "Cc1ccc(-c2nnc(CCON=Cc3ccc(Cl)cc3)o2)cc1" ), measured logP is 3.57

Lab note: "Clc1ccc(C=NOCCc2nnc(-c3ccccc3)o2)cc1" gave logP of 3.01

The compound listed as "Cc1cccc(-c2nnc(CCON=Cc3ccc(Cl)cc3Cl)[nH]2)c1" has a reported logP of 4.1

For "Cc1ccc(-c2nnc(CCON=Cc3ccc(Cl)cc3Cl)[nH]2)cc1" the compound record lists logP as 4.1

Value of measured logP for the entry "Clc1ccc(C=NOCCc2nnc(-c3ccccc3)o2)c(Cl)c1" : 3.72

Sure, the documented logP for "Cc1ccc(-c2nnc(CCON=Cc3ccc(Cl)cc3Cl)o2)cc1" is 4.28

The recorded logP for entry "Cc1ccc(C=NOCCc2nnc(-c3cccc(C)c3)o2)cc1" equals 3.57

// logP lookup, compound = "Clc1ccc(C=NOCCc2nnc(-c3ccccc3)[nH]2)cc1" , result: 2.83

Noted for "Cc1ccc(-c2nnc(CCON=Cc3ccc(Cl)cc3)[nH]2)cc1" : its logP reads 3.39

The recorded logP for "Cc1cccc(-c2nnc(CCON=Cc3ccc(Cl)cc3)[nH]2)c1" is 3.39

Memo: "Cc1cccc(-c2nnc(CCON=Cc3ccc(Cl)cc3Cl)o2)c1" , reported logP: 4.28
